# System: HEK293T cells
# Experiment Notes: MTT cell viability assay, HEK293T cells
# Format: cell-based, human
# Stated Conditions: 48 h incubation, mean ± SD, stock in DMSO (3-Cl and cisplatin in water)

Molecule: Cc1ccc(C(C)C)cc1.Cc1ccc(C(C)C)cc1.[Cl][Ru][Cl].[Cl][Ru][Cl] [[Ru(p-cymene)Cl2]2, [Ru(η^6-p-cymene)(μ-Cl)Cl]2]
IC50: 48.3 µM
--
Molecule: N.N.[Cl][Pt][Cl] [cis-platin, cisplatin, reference compound]
IC50: 16.4 µM
